Test: Phase 1 single ascending dose trial of intravenous HBI-3000: pharmacokinetics
Format: in vivo
Details: human, plasma, iv, 600 mg, 600 mg single iv infusion over 30 min, N=12, as used for ΔΔECG model; read-out: Cmax (Table 2)
Where a name gives a salt, the structure may show the parent alone.
Endpoint: Cmax

>>> experimental_result("COc1ccc(S(=O)(=O)NCc2cc(CN3CCCC3)c(O)c(CN3CCCC3)c2)cc1 [HBI-3000, sulcardine sulfate]")
"5280 ng/mL"

* * *

Test: Phase 1 single ascending dose trial of intravenous HBI-3000: pharmacokinetics
Type: in vivo
Settings: human, plasma; 360 mg single iv infusion over 30 min, healthy subjects, N=5
Structures can show the parent of a compound that is named as a salt.
Endpoint: half-life (h)

>>> experimental_result("COc1ccc(S(=O)(=O)NCc2cc(CN3CCCC3)c(O)c(CN3CCCC3)c2)cc1 [HBI-3000, sulcardine sulfate]")
43.7

* * *

Test: Phase 1 single ascending dose trial of intravenous HBI-3000: pharmacokinetics
Format: in vivo
Conditions: human, plasma, iv, 180 mg, 180 mg single iv infusion over 30 min, healthy subjects, N=6; read-out: AUC (0-24)
Where a name gives a salt, the structure may show the parent alone.
Endpoint: AUC(0-t) (ng·h/mL)

>>> experimental_result("COc1ccc(S(=O)(=O)NCc2cc(CN3CCCC3)c(O)c(CN3CCCC3)c2)cc1 [HBI-3000, sulcardine sulfate]")
1270

* * *

Experiment: Phase 1 single ascending dose trial of intravenous HBI-3000: pharmacokinetics
Format: in vivo
Details: human, plasma, intravenous; 350 mg dose
Where a name gives a salt, the structure may show the parent alone.
Endpoint: half-life (h)

>>> experimental_result("COc1ccc(S(=O)(=O)NCc2cc(CN3CCCC3)c(O)c(CN3CCCC3)c2)cc1 [HBI-3000, sulcardine sulfate]")
43

* * *

Test: Phase 1 single ascending dose trial of intravenous HBI-3000: pharmacokinetics
Assay type: in vivo
Settings: human, plasma; 60 mg single iv infusion over 30 min, healthy subjects, N=6; read-out: Tmax Mean
Where a name gives a salt, the structure may show the parent alone.
Endpoint: Tmax (min)

>>> experimental_result("COc1ccc(S(=O)(=O)NCc2cc(CN3CCCC3)c(O)c(CN3CCCC3)c2)cc1 [HBI-3000, sulcardine sulfate]")
22.8

* * *

Assay: Phase 1 single ascending dose trial of intravenous HBI-3000: pharmacokinetics
Type: in vivo
Conditions: human, plasma, intravenous, 350 mg; read-out: AUC (0-24)
Counter-ions that a name gives are not always drawn.
Endpoint: AUC(0-t)

>>> experimental_result("COc1ccc(S(=O)(=O)NCc2cc(CN3CCCC3)c(O)c(CN3CCCC3)c2)cc1 [HBI-3000, sulcardine sulfate]")
"2880 ng·h/mL"

* * *

Experiment: Phase 1 single ascending dose trial of intravenous HBI-3000: pharmacokinetics
Assay type: in vivo
Conditions: human, plasma, iv, 600 mg, 600 mg single iv infusion over 30 min, healthy subjects, N=12; read-out: Cmax
Method: HBI-3000 (sulcardine sulfate) was administered to human subjects according to the protocol provided in (Clinical Trials.gov Identifier: NCT03397641. That protocol is incorporated herein by reference in its entirety. Objective: Provided herein are the safety, tolerability, pharmacokinetics and electrocardiogram (ECG) results of a Phase 1 single ascending dose trial of intravenous (IV) HBI-3000 in healthy subjects. […]
Where a name gives a salt, the structure may show the parent alone.
Endpoint: Cmax (ng/mL)

>>> experimental_result("COc1ccc(S(=O)(=O)NCc2cc(CN3CCCC3)c(O)c(CN3CCCC3)c2)cc1 [HBI-3000, sulcardine sulfate]")
5580
